# tgt: Acetyl-CoA carboxylase (Homo sapiens, UniProt Q13085+O00763)
# experiment-summary: Inhibition of partially purified human liver ACC1/2
property: IC50 (nM)

[[record]]
structure_as_smiles = "O=C(CO)N1CCC(C(=O)N2CCC(N3CCN(C(=O)c4cc(-c5ccccc5)nc(-c5ccccc5)c4)CC3)CC2)CC1"
quantitative_result = 102

[[record]]
structure_as_smiles = "CC(=O)N1CCC(C(=O)N2CCC(N3CCN(C(=O)c4cc(-c5cccc(F)c5)nc(-c5cccc(F)c5)c4)CC3)CC2)CC1"
quantitative_result = 131

[[record]]
structure_as_smiles = "CC(=O)N1CCC(C(=O)N2CCC(N3CCN(C(=O)c4cc(-c5ccc(O)cc5)nc(-c5ccc(O)cc5)c4)CC3)CC2)CC1"
quantitative_result = 52

